Recorded values, source ChEMBL document CHEMBL1240478.

Molecular target: Neutrophil elastase (Homo sapiens) (UniProt P08246)
Sequence (P08246 whole entry): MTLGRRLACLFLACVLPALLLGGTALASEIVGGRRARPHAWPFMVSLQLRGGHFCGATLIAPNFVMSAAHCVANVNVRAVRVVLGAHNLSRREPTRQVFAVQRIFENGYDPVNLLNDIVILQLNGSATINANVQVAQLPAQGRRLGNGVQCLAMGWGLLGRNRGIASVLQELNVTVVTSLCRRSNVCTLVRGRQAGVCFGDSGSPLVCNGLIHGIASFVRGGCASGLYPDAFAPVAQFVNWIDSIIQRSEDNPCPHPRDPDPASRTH
Experiment: Inhibition of human neutrophil elastase at 3.5 mM after 30 mins assessed as p-nitroaniline release
Documented inhibition across a set of molecules
quantity name: inhibition (%)

                                   molecule                       experimental_system  quantity_name  display_unit  numeric_value
0  O=C(NN1CN(Cc2ccccc2)C(Cc2ccccc2)C1=O)C1CC(=O)N(Cc2ccccc2)C1 (racemic)  Neutrophil elastase (Homo sapiens) (UniProt P08246)     inhibition             %              0
1  O=C(O)c1ccccc1C(=O)NN1CN(Cc2ccccc2)C(Cc2ccccc2)C1=O (racemic)  Neutrophil elastase (Homo sapiens) (UniProt P08246)     inhibition             %              0
2  O=C(O)CCC(=O)NN1CN(Cc2ccccc2)C(Cc2ccccc2)C1=O (racemic)  Neutrophil elastase (Homo sapiens) (UniProt P08246)     inhibition             %              0
3  O=C(NCCc1ccccc1)NN1CNC(Cc2ccccc2)C1=O (racemic)  Neutrophil elastase (Homo sapiens) (UniProt P08246)     inhibition             %              0
4  CC(C)CC1C(=O)N(N(S(C)(=O)=O)S(C)(=O)=O)CN1Cc1ccccc1 (racemic)  Neutrophil elastase (Homo sapiens) (UniProt P08246)     inhibition             %              0

* * *

Biological target: Neutrophil elastase (Homo sapiens)
Sequence (P08246 whole entry): as above
Assay: Reversible competitive inhibition of human neutrophil elastase by Dixon plot analysis
pKi: −log10 of the molar value.
quantity name: pKi

In [3]: df
Out[3]:
                                   molecule  numeric_value
0  CC(C)C[C@@H]1C(=O)N(NC(=O)[C@@H](Cc2ccccc2)NC(=O)OCc2ccccc2)CN1Cc1ccccc1 (racemic)           5.13

* * *

Documented inhibition across a set of compounds
Target: Myeloblastin (proteinase 3) (Homo sapiens) (UniProt P24158)
Sequence (P24158 whole entry, looked up): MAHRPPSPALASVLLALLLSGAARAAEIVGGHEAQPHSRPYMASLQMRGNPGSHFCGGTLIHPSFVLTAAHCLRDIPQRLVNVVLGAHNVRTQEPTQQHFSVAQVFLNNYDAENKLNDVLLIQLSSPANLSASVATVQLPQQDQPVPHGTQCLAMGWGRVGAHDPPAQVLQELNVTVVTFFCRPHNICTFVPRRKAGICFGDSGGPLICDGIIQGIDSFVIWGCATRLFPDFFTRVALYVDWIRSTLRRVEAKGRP
Assay: Inhibition of human neutrophil proteinase 3 at 1.73 mM
quantity name: inhibition (%)

>>> df
                                   compound  numeric_value
0  O=C(NN1CN(Cc2ccccc2)C(Cc2ccccc2)C1=O)C1CC(=O)N(Cc2ccc(F)cc2)C1 (racemic)              0
1  O=C(O)c1ccccc1C(=O)NN1CNC(Cc2ccccc2)C1=O (racemic)              0
2  CC(C)CC1C(=O)N(NC(=O)NCCc2ccccc2)CN1Cc1ccccc1 (racemic)              0
